target of assay: Bromodomain-containing protein 1 (Homo sapiens)
Sequence (O95696 whole entry, the tested form may be a part): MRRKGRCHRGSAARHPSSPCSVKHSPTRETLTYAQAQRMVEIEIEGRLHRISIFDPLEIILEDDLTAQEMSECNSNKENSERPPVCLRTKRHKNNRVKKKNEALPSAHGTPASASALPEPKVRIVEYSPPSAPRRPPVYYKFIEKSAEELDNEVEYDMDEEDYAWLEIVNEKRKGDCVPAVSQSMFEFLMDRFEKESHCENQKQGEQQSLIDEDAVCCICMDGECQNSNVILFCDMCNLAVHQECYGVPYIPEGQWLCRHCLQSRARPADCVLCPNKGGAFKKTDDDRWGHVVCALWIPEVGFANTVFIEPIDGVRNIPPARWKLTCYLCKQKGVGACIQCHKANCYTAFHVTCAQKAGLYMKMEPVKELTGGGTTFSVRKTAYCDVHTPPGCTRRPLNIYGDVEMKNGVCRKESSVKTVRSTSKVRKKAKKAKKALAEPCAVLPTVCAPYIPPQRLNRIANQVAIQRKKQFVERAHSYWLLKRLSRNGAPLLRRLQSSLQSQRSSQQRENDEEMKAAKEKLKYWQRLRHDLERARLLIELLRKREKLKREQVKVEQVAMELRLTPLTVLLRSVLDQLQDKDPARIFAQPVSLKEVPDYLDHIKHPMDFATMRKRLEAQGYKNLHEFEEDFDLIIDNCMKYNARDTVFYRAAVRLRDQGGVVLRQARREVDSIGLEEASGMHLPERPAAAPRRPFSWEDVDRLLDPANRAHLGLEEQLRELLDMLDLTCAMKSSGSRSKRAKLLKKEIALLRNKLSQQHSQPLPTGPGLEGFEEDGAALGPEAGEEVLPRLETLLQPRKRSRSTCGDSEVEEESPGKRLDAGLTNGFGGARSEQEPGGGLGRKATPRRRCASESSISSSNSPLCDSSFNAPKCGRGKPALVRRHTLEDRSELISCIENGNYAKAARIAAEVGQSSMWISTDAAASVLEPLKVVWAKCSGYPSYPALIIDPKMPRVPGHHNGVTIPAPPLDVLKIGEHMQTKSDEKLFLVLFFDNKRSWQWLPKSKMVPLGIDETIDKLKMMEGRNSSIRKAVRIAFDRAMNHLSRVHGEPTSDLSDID
test description: Inhibition of human BRD1 (E556 to A688 residues) expressed in bacterial expression system by BROMOscan assay
Measured IC50 by item
value type: IC50

| test smiles | target of assay | value type | data value |
| --- | --- | --- | --- |
| Cc1[nH]c(-c2cc(S(C)(=O)=O)ccc2Oc2ccc(F)cc2F)c2c1C(=O)NCC2 | Bromodomain-containing protein 1 (Homo sapiens) | IC50 | > 1000 nM |
| Cc1[nH]c(-c2cc(NS(C)(=O)=O)ccc2Oc2ccccc2)c2c1C(=O)CCC2 | Bromodomain-containing protein 1 (Homo sapiens) | IC50 | > 1000 nM |
